assaySystem: UniProt P08659
assayExplanation: inhibition of purified Photinus pyralis luciferase – biochemical, luminescence, dose response (AID 1891)
experimentalContext: purified firefly luciferase
Activity calls are given as the source filed them. No rule for the calls is given here.
quantityName: IC50

compound: Nc1ncnc2c1ncn2[C@@H]1O[C@H](CO)[C@@H](O)[C@H]1O
result: > 11.2 µM (inactive)

Query Nc1ncnc2c1ncn2C1OC(CO)C(O)C1O (centres undefined) yields IC50 of > 11.2 µM (inactive)

Query "CCNC(=O)[C@H]1O[C@@H](n2cnc3c(N)ncnc32)[C@H](O)[C@@H]1O" yields IC50 of > 11.2 µM (inactive)

Query CCNC(=O)C1OC(n2cnc3c(N)ncnc32)C(O)C1O (centres undefined) yields IC50 of > 11.2 µM (inactive)

src = PubChem BioAssay AID1891
